System: Mycosphaerella graminicola; Anamorph: Septoria tritici; Bayer Code SEPTTR
procedure-details: Leaf blotch of wheat, foliar fungicide treatment, one day protectant (1DP) or three day curative (3DC)
Format: in vivo, Septoria tritici on wheat plants (variety Yuma)
experimental-parameters: Zymoseptoria tritici, 24 h, one day protectant (1DP), 25 ppm, rating of percent disease control, read-out: SETTTR 1DP 25 ppm
measurement-kind: pest or weed control at 25 ppm

A selection of reference data follows.
INSERT INTO measurements (compound, assay_result) VALUES
  ('Nc1nc(OCC2CC2(F)F)ncc1F (stereo not shown) [Compound 509]', '0 to 25%'),
  ('CN(C)/C=N/c1nc(OC(=O)C2CCCCC2)ncc1F [Compound 247]', '76 to 100%'),
  ('CCOCNc1nc(OCc2cccc(F)c2)ncc1F [Compound 498]', '76 to 100%'),
  ('CCOCCOc1cccc(COc2ncc(F)c(N)n2)c1 [Compound 752]', '76 to 100%');

Q: Which value of pest or weed control at 25 ppm has been reported for O=C(Nc1nc(OCc2ccc(F)cc2)ncc1F)c1ccccc1 [Compound 364] in the records?
Result: 76 to 100%

Q: Field entry: Cc1cc(COc2ncc(F)c(N)n2)ccc1F [Compound 365]
Result: 76 to 100%

Q: Next: CC[Si](CC)(CC)Nc1nc(OCc2cccs2)ncc1F [Compound 503]
Result: 76 to 100%

Q: For COc1ccc(COc2ncc(F)c(N)n2)cc1C [Compound 386] then?
Result: 76 to 100%

Q: Also, Nc1nc(OCc2cn3ccccc3n2)ncc1F [Compound 307] please.
Result: 76 to 100%

Q: Can you handle CCOCNc1nc(OCc2cccs2)ncc1F [Compound 343] next?
Result: 26 to 50%
